- test-target: CO (Rattus norvegicus, UniProt Q63921)
- Construct: the supernatant was saved as the source of enzymes; endogenous in cells; host or cells: RBL-1 (rat basophilic leukemia) cells
- Sequence (Q63921 27-602): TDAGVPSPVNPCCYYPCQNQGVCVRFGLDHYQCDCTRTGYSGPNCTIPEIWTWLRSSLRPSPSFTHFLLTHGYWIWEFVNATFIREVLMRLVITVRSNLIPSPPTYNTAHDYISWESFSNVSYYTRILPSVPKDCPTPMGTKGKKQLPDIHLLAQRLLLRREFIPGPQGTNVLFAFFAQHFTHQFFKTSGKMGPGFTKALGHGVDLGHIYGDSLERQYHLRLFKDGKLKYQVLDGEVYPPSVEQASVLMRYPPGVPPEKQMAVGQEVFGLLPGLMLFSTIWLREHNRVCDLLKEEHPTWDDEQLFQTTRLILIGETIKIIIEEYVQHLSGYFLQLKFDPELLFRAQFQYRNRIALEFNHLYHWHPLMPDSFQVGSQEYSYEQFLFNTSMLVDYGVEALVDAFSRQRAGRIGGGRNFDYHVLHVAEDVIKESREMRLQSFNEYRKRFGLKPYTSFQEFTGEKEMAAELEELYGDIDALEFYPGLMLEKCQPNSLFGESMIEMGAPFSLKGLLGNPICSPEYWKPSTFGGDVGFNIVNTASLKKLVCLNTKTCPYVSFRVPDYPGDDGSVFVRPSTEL
- method-summary: Procedure II: CO activity in broken RBL-1 cells (homogenate supernatant)
- Assay type: biochemical
- measurement-conditions: RBL-1 broken cell supernatant; read-out: Proc. II CO IC50
pIC50: −log10 of the molar value.
measurement-name: pIC50

{"compound": "COC(=O)N(O)C(C)C#Cc1cc(-c2ccc(C)cc2)n(-c2ccc(OC)cc2)n1 (centres unmarked) [Cpd 27]", "result-number": 6.85}
{"compound": "COc1ccc(-n2nc(C#CC(C(C)C)N(O)C(N)=O)cc2-c2ccc(C)cc2)cc1 (centres unmarked) [Cpd 4]", "result-number": 5.34}
{"compound": "COc1ccc(-n2nc(C#CC(C)N(O)C(=O)C(C)C)cc2-c2ccc(C)cc2)cc1 (centres unmarked) [Cpd 20]", "result-number": 7.40}
{"compound": "CCc1ccc(-c2cc(C#CC(C)N(O)C(C)=O)nn2-c2ccc(OC)cc2)cc1 (centres unmarked) [Cpd 29]", "result-number": 7.22}
{"compound": "CCC(C#Cc1cc(-c2ccc(C)cc2)n(-c2ccc(OC)cc2)n1)N(O)C(N)=O (centres unmarked) [Cpd 3]", "result-number": 4.80}
{"compound": "COc1ccc(-n2nc(C#CC(C)N(O)C(N)=O)cc2-c2ccc(C)cc2)cc1 (centres unmarked) [Cpd 2]", "result-number": 5.03}
{"compound": "COc1ccc(-n2nc(C#CC(C)N(O)C(=O)C(F)(F)F)cc2-c2ccc(C)cc2)cc1 (centres unmarked) [Cpd 23]", "result-number": 7.30}
{"compound": "COc1ccc(-n2nc(C#CCN(O)C(N)=O)cc2-c2ccc(C)cc2)cc1 [Cpd 1]", "result-number": 6.51}
{"compound": "COc1ccc(-n2nc(C#CC(C)N(O)C(=O)c3ccccc3)cc2-c2ccc(Cl)cc2)cc1 (centres unmarked) [Cpd 40]", "result-number": 4.83}
{"compound": "COc1ccc(-n2nc(C#CC(C)N(O)C(C)=O)cc2-c2ccc(C)cc2)cc1 (centres unmarked) [Cpd 18]", "result-number": 8.00}
{"compound": "CCC(C#Cc1cc(-c2ccc(C)cc2)n(-c2ccc(OC)cc2)n1)N(O)C(C)=O (centres unmarked) [Cpd 28]", "result-number": 8.00}
